The values you see were collected from patent US11179376B2.

Answer each item with its documented Tmax.
Test: Pharmacokinetics test in beagle dogs (capsule by gavage, plasma LC/MS/MS)
Assay type: in vivo
Conditions: capsule by gavage, dose 2.5 mg/kg, plasma
Experimental: The LC/MS/MS system used in the analysis consists of an Agilent 1200 Series vacuum degasser, binary pump, well-plate autosampler, thermostated column compartment, the Agilent G6430 Triple Quadrupole Mass Spectrometer with an electrosprayionization (ESI) source. Quantitative analysis was carried out using MRM mode. The parameters for MRM transitions are in the Table A. An Agilent XDB-C18, 2.1×30 mm, 3.5 μM column was used for the analysis. 5 μL of the samples were injected. […]
Where a name gives a salt, the structure may show the parent alone.
Numbers only, in h.

Please go through the list and note Tmax for each compound.
1. COc1ncc(-c2ccn3ncc(C#N)c3c2)cc1NS(=O)(=O)c1ccc(F)cc1F [amorphous form of mono-sodium salt]
2. COc1ncc(-c2ccn3ncc(C#N)c3c2)cc1NS(=O)(=O)c1ccc(F)cc1F [crystalline form C of mono-sodium salt]
3. COc1ncc(-c2ccn3ncc(C#N)c3c2)cc1NS(=O)(=O)c1ccc(F)cc1F [crystalline form A of mono-sodium salt]

// result
[1.33, 2.33, 2.5]
